Reported PBM E-score of 8-mer is given for each of the following sequences.
- Tested on: PmTbr T-box DNA-binding domain (GST fusion);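 note: 200 nM protein in PBS on universal arrays averaged over duplicate arrays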
- Sequence: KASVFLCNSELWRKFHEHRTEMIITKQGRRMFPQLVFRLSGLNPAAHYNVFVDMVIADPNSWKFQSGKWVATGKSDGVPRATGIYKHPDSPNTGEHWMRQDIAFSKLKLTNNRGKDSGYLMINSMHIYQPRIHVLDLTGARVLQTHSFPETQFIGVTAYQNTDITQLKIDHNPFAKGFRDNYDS
- MEASUREMENT PROTOCOL: PBM E-score of 8-mer (E-score (dimensionless, -0.5 to 0.5)); higher = stronger binding preference
- CONDITIONS USED: the construct has about 5 more residues each side
Over roughly 33,000 sequences, “E-score (dimensionless, -0.5 to 0.5)” has its median near -0.049; the highest 2% begin near 0.37. The sample holds the highest values, similar sequences and a random draw of the others, so the mix is not that of the screen.
VALUE KIND: PBM E-score of 8-mer

GACCTTCA -0.0991
CTCGCACA 0.375
AGACCTTG -0.174
CAAATACA -0.164
CTTCACAA 0.225
CACTATAC 0.132
TTAAGAAA -0.165
ATAGGGGG -0.0469
CGCGAACG 0.375
GTCTTCAA -0.0747
AGACAGAG -0.139
CCATAGGA -0.0411
ATCGCGCC 0.368
CGGTTAGA -0.182
ATCGCACC 0.464
AAGTGACC 0.185
TCGGTCCA -0.365
ATTAGAAC -0.161
TCCTGCCA 0.183
ACACCTTG 0.481
ATCGCACG 0.34
GAATTCCC 0.0309
GCTGACTA -0.0402
CGCGAAAC 0.355
TCGCTTCA 0.177
ACAACACA 0.347
GATGGCGA 0.114
GCCCACTA -0.0431
GCAACACA 0.311
ATACCTTA 0.0857
CACCTTCA 0.436
CCCTGGGA -0.131
CCTAGCAA 0.128
GAGTGACA 0.373
GCACCTGA 0.391
AAGTGACA 0.458
ACGGTGCA 0.0807
ATCGCTTC 0.0264
CAGTGACA 0.338
TAGTGAAA 0.144
AAGTGACT 0.092
ACCGGTCC -0.276
ACGCTTCT 0.106
CCAACACA 0.241
AAAGACGT -0.108
TCCTTAGA -0.289
ACCTTAAC 0.0595
AAGGTGCA 0.4
ATGCAATA -0.341
AAGTGAAA 0.154
ACAACACT 0.37
ATCCTGCC -0.0684
GATTTGGC 0.249
ATTCACAG 0.355
GCTAGCAC 0.33
ACAGATGA 0.00068
CTCGCGCC 0.401
TAGTGACA 0.398
ACTAGCAC 0.381
ACGGTGCC 0.158
ACGGCTCT -0.15
ATGCTCGG 0.00834
AAGGTGGT 0.341
ATGGTGCC 0.193
CGATGTGA 0.228
ATGGGCTC -0.154
GCTTGCCC -0.245
GGGTGTCA 0.472
GTCGCACA 0.353
CTTCACAC 0.478
CCCGCACC 0.3
GGCGATAA 0.276
CTCGCATC 0.176
GACCTTCC 0.0338
CCCAAGGG -0.052
ACAACACC 0.435
ATCCCAAG -0.275
ATTCACGA 0.29
AGGGATAA -0.203
CGATGTCA 0.0984
GCTAACTA 0.212
CGCAGCCA 0.00214
ACGGTGCT 0.164
GAGTGACC -0.0846

* * *

- Tested on: PmTbr T-box DNA-binding domain (GST fusion);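 note: 200 nM protein in PBS on universal arrays averaged over duplicate arrays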
- Sequence: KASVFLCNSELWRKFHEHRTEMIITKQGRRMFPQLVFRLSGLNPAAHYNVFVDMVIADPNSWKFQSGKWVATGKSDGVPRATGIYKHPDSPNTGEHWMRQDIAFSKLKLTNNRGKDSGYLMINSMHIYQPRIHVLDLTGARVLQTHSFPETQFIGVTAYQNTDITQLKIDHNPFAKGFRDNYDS
- MEASUREMENT PROTOCOL: PBM E-score of 8-mer (E-score (dimensionless, -0.5 to 0.5)); higher = stronger binding preference
- CONDITIONS USED: target sequence: T-box / the construct has about 5 more residues each side
In all, about 33,000 sequences were measured (“E-score (dimensionless, -0.5 to 0.5)”: median about -0.049, highest 2% from about 0.37 on). Many of the other results were omitted from the sample, so the highest values are more common in it than they were.
Please note: Criterion met applies when PBM E-score of 8-mer is 0.07 or greater, and Criterion not met applies otherwise.

ACCACCCT Criterion not met
AACACCCC Criterion met
AACCTTGC Criterion not met
ACTCGCAC Criterion met
GAGTGCCA Criterion met
CGTGGCTA Criterion not met
GGCACCCA Criterion met
AGCTTCAT Criterion not met
GCCACCCA Criterion not met
CTGTGCTA Criterion not met
GACCTTGC Criterion not met
GGCACCCC Criterion met
GCGTGCTA Criterion met
AATGGTCG Criterion not met
TCTTAGCA Criterion met
GGTTCTTA Criterion not met
AGCACCCT Criterion met
ACCTGCGT Criterion met
CACCTTGA Criterion met
CCTCGCAA Criterion met
ATGACCTC Criterion not met
GTGTATCA Criterion not met
CCTCGCAG Criterion met
CAGCTTGG Criterion met
GCTCGCCC Criterion not met
ACTCGCAG Criterion met
AAGTGCCC Criterion not met
GACATCTC Criterion not met
TACCTTGA Criterion not met
ATGTGCCG Criterion met

* * *

- Tested on: PmTbr T-box DNA-binding domain (GST fusion);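 note: 200 nM protein in PBS on universal arrays averaged over duplicate arrays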
- Sequence: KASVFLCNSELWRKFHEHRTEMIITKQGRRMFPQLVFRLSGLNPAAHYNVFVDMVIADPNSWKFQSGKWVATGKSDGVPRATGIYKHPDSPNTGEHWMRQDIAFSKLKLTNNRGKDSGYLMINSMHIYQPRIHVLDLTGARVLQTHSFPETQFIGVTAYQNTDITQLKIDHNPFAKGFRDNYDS
- MEASUREMENT PROTOCOL: PBM E-score of 8-mer (E-score (dimensionless, -0.5 to 0.5)); higher = stronger binding preference
- CONDITIONS USED: target sequence: T-box / the construct has about 5 more residues each side
Over roughly 33,000 sequences, “E-score (dimensionless, -0.5 to 0.5)” has its median near -0.049; the highest 2% begin near 0.37. The sample as a whole holds a higher share of the highest values than the screen did.
Please note: Met applies when PBM E-score of 8-mer is 0.02 or greater, and Not met applies otherwise.

ATAGGTGA Met
CTTGCTCA Met
CGAAATCG Met
CTTTATGA Not met
TAGAACGA Not met
CGCCTAAG Met

* * *

- Test system: PmTbr T-box DNA-binding domain (GST fusion);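 note: 200 nM protein in PBS on universal arrays averaged over duplicate arrays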
- Sequence: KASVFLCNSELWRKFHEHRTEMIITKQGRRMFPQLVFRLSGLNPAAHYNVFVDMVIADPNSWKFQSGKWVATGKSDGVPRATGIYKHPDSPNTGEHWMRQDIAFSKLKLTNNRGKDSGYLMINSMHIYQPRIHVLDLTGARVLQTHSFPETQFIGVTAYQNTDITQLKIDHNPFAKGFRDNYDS
- MEASUREMENT PROTOCOL: PBM E-score of 8-mer (E-score (dimensionless, -0.5 to 0.5)); higher = stronger binding preference
- CONDITIONS USED: target sequence: T-box / the construct has about 5 more residues each side
The full ranking holds about 33,000 sequences; the median of “E-score (dimensionless, -0.5 to 0.5)” is about -0.049, and the highest 2% start at about 0.37. What follows is part of a selection rich in the highest values, with near analogues and random picks from the rest.
Please note: class 1 applies when PBM E-score of 8-mer is 0.06 or greater, and class 0 applies otherwise.

CCTACCCC class 0
GTGTGCCA class 1
CTGTTAGA class 1
GTGTTAAA class 1
ATGTTAGA class 0
CAGCGCTG class 0
GTGAAACA class 1
CGGTGGGC class 0
AGCGAATA class 0
ATCAGTGG class 0
GGATGTTA class 0
CGCTGTTA class 0
CTGGTGTC class 1
CGCACTCA class 1
CTGTTATA class 1

* * *

- Tested on: PmTbr T-box DNA-binding domain (GST fusion);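 note: 200 nM protein in PBS on universal arrays averaged over duplicate arrays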
- Sequence: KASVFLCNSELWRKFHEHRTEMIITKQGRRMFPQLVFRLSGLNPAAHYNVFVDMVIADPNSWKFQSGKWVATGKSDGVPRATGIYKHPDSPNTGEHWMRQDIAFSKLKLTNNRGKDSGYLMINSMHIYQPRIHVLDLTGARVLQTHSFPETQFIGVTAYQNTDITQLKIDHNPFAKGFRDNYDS
- MEASUREMENT PROTOCOL: PBM E-score of 8-mer (E-score (dimensionless, -0.5 to 0.5)); Tbr is Tbrain of the sea star Patiria miniata (Pm) or the sea urchin Strongylocentrotus purpuratus (Sp); higher = stronger binding preference
- CONDITIONS USED: target sequence: T-box / the construct has about 5 more residues each side
Whole data set: some 33,000 sequences, median “E-score (dimensionless, -0.5 to 0.5)” near -0.049, cut for the highest 2% near 0.37. The full list was thinned out, with the highest values kept by preference.
Please note: label 1 applies when PBM E-score of 8-mer is 0.06 or greater, and label 0 applies otherwise.

ATCCAGCA label 0
GAAATAGA label 0
ATTAGGGG label 0
AGACACCC label 1
ACGAAACG label 1
TACACCCA label 1
AACCTTAG label 0
AATGTCGA label 0
CACACACG label 1
CGTGCCAA label 1
GTTGTCGA label 1
CGTGTCTA label 1
GCATCAAC label 1
CGTGCCAC label 1
AGGGCAAG label 0
CTCACACA label 1
AAGGTTAC label 0
CACCCCCG label 1
GTCACAAA label 1
ATCACCCG label 1
CGTCTTCA label 0
GGACACCA label 1
GATCCTGA label 0
CACACCGC label 1
CGACACCG label 1
AAAACCTG label 1
CGAAAGTC label 1
ACACTCTG label 1
AGCTGTCA label 1
ACCGCAGA label 0
CACACCCC label 1
ATTGCTCG label 0
GGGTGCCA label 1
GGTGTCGA label 1
GGTGCCAC label 1
AGGGAACG label 0
AAACCATC label 0
AATGCTGG label 0
AGGTGCAA label 1
TCTTCACA label 1
CGACACCA label 1
AGTGTCGC label 1
CGACGGGA label 0
CACCTTAG label 1
GCGCAGGA label 0
ACACGTTA label 1
CAGCAATC label 0
TGTGCCAA label 1
CCCACCCG label 1
ACTTCACG label 1
AGTCGAGG label 0
GCTCTAGA label 0
AACACCCG label 1
ACACGTCT label 1
ACTCAAGT label 0
AGACACCA label 1
ACAGGGCG label 1
CACCTTAA label 1
CGGCCAGA label 0
AACCTTAA label 0
ACACGTAG label 1
CTAGGATC label 0
